Biological target: 5-lipoxygenase (Rattus norvegicus)
Construct: The resulting supernatant liquid was used as an enzymatic solution; endogenous in cells; host or cells: rat basophil leukemia-1 (RBL-1) cells, supernatant after sonication
Test: 5-Lipoxygenase activity-inhibiting action (5-HETE biosynthesis, rat basophil leukemia-1 cell supernatant)
Assay type: biochemical
Conditions: Table 1
So I've got a bunch of compounds here, and I need their log10(IC50) values.
Record value = log10 of IC50 given in nM.

Which value of log10(IC50) has been reported for `O=C(NCCN1CCC(OC(c2ccccc2)c2ccccc2)CC1)c1cc2cccc(O)c2cc1O` in the records?
2.18

Query (compound): `CC(=O)Oc1cccc2cc(C(=O)NCCN3CCC(OC(c4ccccc4)c4ccccc4)CC3)c(O)cc12` ; field requested: log10(IC50)
2.61

Requested read-out: log10(IC50). Entry: `O=C(NCCN1CCC(OC(c2ccccc2)c2ccccc2)CC1)c1cc2cccc(OCc3cccnc3)c2cc1O`
3.71

Query (compound): `CC(=O)Oc1cccc2cc(C(=O)NCCN3CCN(CCSCc4cccs4)CC3)c(O)cc12` ; field requested: log10(IC50)
2.51

Reported log10(IC50) for `O=C(NCCN1CCN(CCSC(c2ccc(Cl)cc2)c2ccc(Cl)cc2)CC1)c1cc2cccc(O)c2cc1O` : what is it?
2.40

----------
Biological target: 5-lipoxygenase (Rattus norvegicus, UniProt P12527)
Construct: The resulting supernatant liquid was used as an enzymatic solution; endogenous in cells; host or cells: rat basophil leukemia-1 (RBL-1) cells, supernatant after sonication
Sequence (P12527 1-673): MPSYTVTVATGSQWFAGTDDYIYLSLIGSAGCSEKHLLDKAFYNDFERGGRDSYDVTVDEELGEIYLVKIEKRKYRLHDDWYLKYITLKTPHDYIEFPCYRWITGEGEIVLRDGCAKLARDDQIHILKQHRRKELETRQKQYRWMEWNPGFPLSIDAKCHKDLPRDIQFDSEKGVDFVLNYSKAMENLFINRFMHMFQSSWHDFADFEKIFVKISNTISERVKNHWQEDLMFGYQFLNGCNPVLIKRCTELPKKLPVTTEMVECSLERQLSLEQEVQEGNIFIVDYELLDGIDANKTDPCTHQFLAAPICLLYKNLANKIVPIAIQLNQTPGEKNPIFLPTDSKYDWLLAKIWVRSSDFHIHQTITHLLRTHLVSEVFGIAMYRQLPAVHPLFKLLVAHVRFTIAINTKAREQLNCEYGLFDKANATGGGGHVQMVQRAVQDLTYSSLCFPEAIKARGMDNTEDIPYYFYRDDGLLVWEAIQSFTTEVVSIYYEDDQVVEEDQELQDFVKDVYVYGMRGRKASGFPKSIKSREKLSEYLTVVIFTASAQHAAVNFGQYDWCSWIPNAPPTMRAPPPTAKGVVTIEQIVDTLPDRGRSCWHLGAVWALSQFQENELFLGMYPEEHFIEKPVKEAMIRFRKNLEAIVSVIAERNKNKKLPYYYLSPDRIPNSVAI
Assay: 5-Lipoxygenase activity-inhibiting action (5-HETE biosynthesis, rat basophil leukemia-1 cell supernatant)
Type: biochemical
Details: Table 2
Description: 5-Lipoxygenase activity-inhibiting action Rat basophil leukemia-1 cells were suspended in a 50 mM phosphate buffer solution (PBS) of pH 7.0 containing 1 mM of EDTA, 0.1% of gelatin and 14 μM of indometacin so that the resulting suspension contained 5×10^7 cels cells/ml ml. The suspension was subjected to an ultrasonic treatment and then to centrifugation (10,000G, 20 minutes). The resulting supernatant liquid was used as an enzymatic solution. […]
Would you kindly list IC50 for each of these compounds?
Give a bare numeral; the unit nM is implied.

Reported IC50, compound O=C(NCCN1CCC(OC(c2ccccc2)c2ccccc2)CC1)c1cc2cc(O)ccc2cc1O [Example 35] : ____
270

Given O=C(NCCN1CCC(OC(c2ccccc2)c2ccccc2)CC1)c1cc2cccc(OCc3ccncc3)c2cc1O [Example 43] , state its recorded IC50.
110

Data origin: patent US5324728A
